Hello, the source for this data is ChEMBL document CHEMBL4152256, in case you need it.

Assay: Genotoxicity in Salmonella typhimurium TA1535 harboring pSK1002 assessed as survival at 0.004 mg/ml in presence of Sprague-Dawley rat liver S9 fraction after by SOS/umu assay relative to control
Type: toxicity, organism-based
Settings: salmonella enterica subsp. enterica serovar typhimurium, read-out: Survival
Below, each entry is listed with its recorded viability at 0.004 mg/ml.
Report only the number, with the unit % understood.

I am curious: what viability at 0.004 mg/ml value has been reported for OC(CCN1CCN(c2ccccc2C(F)(F)F)CC1)c1ccc(F)cc1 (stereo not drawn) ?
92.9

// repeat for Oc1ccc(C(O)CCN2CC=C(c3ccc(F)cc3)CC2)cc1 (stereo not drawn) and report
112

// repeat for N#Cc1ccc(N2CCC(NCCC(O)c3ccc(F)c4ccccc34)CC2)c(Cl)c1 (stereo not drawn) and report
169

// repeat for OC(CCN1CCN(C(c2ccccc2)c2ccccc2)CC1)c1ccc(Cl)cc1 (stereo not drawn) and report
89.5

// repeat for OC(CCN1CCN(c2ccc(F)cc2)CC1)c1ccc(F)c2ccccc12 (stereo not drawn) and report
95.6

// repeat for COc1ccccc1C1=CCN(CCC(O)c2ccc(F)cc2)CC1 (stereo not drawn) and report
82.3

// repeat for N#Cc1ccc(N2CCC(NCCC(O)c3ccc(F)c4ccccc34)CC2)c(Br)c1 (stereo not drawn) and report
97.5

====

Experiment: Genotoxicity in Salmonella typhimurium TA1535 harboring pSK1002 assessed as survival at 0.25 mg/ml in presence of Sprague-Dawley rat liver S9 fraction after by SOS/umu assay relative to control
Assay type: toxicity, organism-based
Conditions: salmonella enterica subsp. enterica serovar typhimurium, read-out: Survival
Endpoint Name: viability at 0.25 mg/ml (%)
Report only the number, with the unit % understood.

Consider the worked cases shown below.
                                   molecule  unit_string  recorded_measurement
0  OC(CCN1CCN(c2ccccc2C(F)(F)F)CC1)c1ccc(F)cc1 (stereo not given)            %                  24.6
1  COc1ccccc1C1=CCN(CCC(O)c2ccc(F)c3ccccc23)CC1 (stereo not given)            %                   182
2  Nc1ccc(N2CCC(NCCC(O)c3ccc(F)c4ccccc34)CC2)c(C(F)(F)F)c1 (stereo not given)            %                   118
3  COc1ccccc1N1CCN(CCC(O)c2ccc(F)c3ccccc23)CC1 (stereo not given)            %                   115
4  OC(CCN1CCN(c2ccc(F)cc2)CC1)c1ccc(F)c2ccccc12 (stereo not given)            %                  66.2
5  OC(CCN1CCN(c2ccccc2C(F)(F)F)CC1)c1ccc(F)c2ccccc12 (stereo in doubt; 55)            %                  95.4
6  COc1ccccc1C1=CCN(CCC(O)c2ccc(F)cc2)CC1 (stereo not given)            %                    73
7  N#Cc1ccc(C(O)CCN2CC=C(c3ccc(F)cc3)CC2)cc1 (stereo not given)            %                  95.1
8  OC(CCN1CC=C(c2ccc(F)cc2)CC1)c1ccc2c(c1)OCO2 (stereo not given)            %                    96

Then this molecule:
I am curious: what viability at 0.25 mg/ml value has been reported for COc1ccccc1N1CCN(CCC(O)c2ccc(F)cc2)CC1 (stereo in doubt; 66) ?
90.4

====

Assay: Genotoxicity in Salmonella typhimurium TA1535 harboring pSK1002 assessed as survival at 0.004 mg/ml in presence of Sprague-Dawley rat liver S9 fraction after by SOS/umu assay relative to control
Type: toxicity, organism-based
Conditions: salmonella enterica subsp. enterica serovar typhimurium, read-out: Survival
Below, each entry is listed with its recorded viability at 0.004 mg/ml.
Report only the number, with the unit % understood.

>>> print(df.to_string())
                                   compound  recorded_measurement
0  OC(CCN1CCN(c2ccccc2C(F)(F)F)CC1)c1ccc(F)c2ccccc12 (stereo in doubt; 55)                   108
1  OC(CCN1CCN(C(c2ccccc2)c2ccccc2)CC1)c1ccc(F)c(F)c1 (stereo not given)                  87.6
2  O=[N+]([O-])c1ccccc1N1CCN(CCC(O)c2ccc(F)c3ccccc23)CC1 (stereo not given)                  92.2
3  OC(CCN1CCN(C(c2ccccc2)c2ccccc2)CC1)c1ccc(F)cc1 (stereo not given)                    87

I am curious: what viability at 0.004 mg/ml value has been reported for N#Cc1ccc(N2CCC(NCCC(O)c3ccc(F)c4ccccc34)CC2)c(C(F)(F)F)c1 (stereo in doubt; 72) ?
136

====

Assay: Genotoxicity in Salmonella typhimurium TA1535 harboring pSK1002 assessed as survival at 0.016 mg/ml in presence of Sprague-Dawley rat liver S9 fraction after by SOS/umu assay relative to control
Type: toxicity, organism-based
Conditions: salmonella enterica subsp. enterica serovar typhimurium, read-out: Survival
Could you please mark fulfilled for values of viability at 0.016 mg/ml below 90% and not fulfilled for values at or above it?

                                   compound    class_label
0  COC(=O)c1ccc(C(O)CCN2CC=C(c3ccc(F)cc3)CC2)cc1 (stereo not given)  not fulfilled

Please find the next compound below.
Bench note: check whether Oc1ccc(C(O)CCN2CC=C(c3ccc(F)cc3)CC2)cc1 (stereo not given) shows viability at 0.016 mg/ml below 90%
not fulfilled

====

Tested on: Plasmodium falciparum
Experiment: Antiplasmodial activity against multidrug-resistant Plasmodium falciparum C235 after 72 hrs by MSF assay
Format: functional, organism-based
Details: C235, 72 h
Could you please mark rule met for values of IC50 below 0.2 µM and rule not met for values at or above it?

// known answers, use as guide
In [3]: df
Out[3]:
                                   molecule            test_target   class_label
0  COc1ccccc1C1=CCN(CCC(O)c2ccc(F)c3ccccc23)CC1 (stereo not given)  Plasmodium falciparum  rule not met
1  COc1ccccc1N1CCN(CCC(O)c2ccc(F)c3ccccc23)CC1 (stereo not given)  Plasmodium falciparum  rule not met
2  OC(CCN1CCN(c2ccccc2C(F)(F)F)CC1)c1ccc(F)c2ccccc12 (stereo in doubt; 55)  Plasmodium falciparum      rule met
3  N#Cc1ccc(N2CCC(NCCC(O)c3ccc(F)c4ccccc34)CC2)c(Cl)c1 (stereo not given)  Plasmodium falciparum      rule met
4  N#Cc1ccc(N2CCC(NCCC(O)c3ccc(F)c4ccccc34)CC2)c(Br)c1 (stereo not given)  Plasmodium falciparum      rule met
5  N#Cc1ccc(N2CCC(NCCC(O)c3ccc(F)c4ccccc34)CC2)c(C(F)(F)F)c1 (stereo in doubt; 72)  Plasmodium falciparum      rule met
6  OC(CCN1CCN(C(c2ccccc2)c2ccccc2)CC1)c1ccc(F)c2ccccc12 (stereo not given)  Plasmodium falciparum      rule met
7  O=[N+]([O-])c1ccc(N2CCC(NCCC(O)c3ccc(F)c4ccccc34)CC2)c(C(F)(F)F)c1 (stereo in doubt; 8)  Plasmodium falciparum      rule met

Bench note: check whether COc1ccccc1C1=CCN(CCC(O)c2ccc(F)cc2)CC1 (stereo not given) shows IC50 below 0.2 µM
rule not met

// repeat for COc1ccccc1N1CCN(CCC(O)c2ccc(F)cc2)CC1 (stereo in doubt; 66) and report
rule not met

====

Target: HSP90 (Plasmodium falciparum 3D7) (UniProt Q8IL32)
Sequence (whole entry): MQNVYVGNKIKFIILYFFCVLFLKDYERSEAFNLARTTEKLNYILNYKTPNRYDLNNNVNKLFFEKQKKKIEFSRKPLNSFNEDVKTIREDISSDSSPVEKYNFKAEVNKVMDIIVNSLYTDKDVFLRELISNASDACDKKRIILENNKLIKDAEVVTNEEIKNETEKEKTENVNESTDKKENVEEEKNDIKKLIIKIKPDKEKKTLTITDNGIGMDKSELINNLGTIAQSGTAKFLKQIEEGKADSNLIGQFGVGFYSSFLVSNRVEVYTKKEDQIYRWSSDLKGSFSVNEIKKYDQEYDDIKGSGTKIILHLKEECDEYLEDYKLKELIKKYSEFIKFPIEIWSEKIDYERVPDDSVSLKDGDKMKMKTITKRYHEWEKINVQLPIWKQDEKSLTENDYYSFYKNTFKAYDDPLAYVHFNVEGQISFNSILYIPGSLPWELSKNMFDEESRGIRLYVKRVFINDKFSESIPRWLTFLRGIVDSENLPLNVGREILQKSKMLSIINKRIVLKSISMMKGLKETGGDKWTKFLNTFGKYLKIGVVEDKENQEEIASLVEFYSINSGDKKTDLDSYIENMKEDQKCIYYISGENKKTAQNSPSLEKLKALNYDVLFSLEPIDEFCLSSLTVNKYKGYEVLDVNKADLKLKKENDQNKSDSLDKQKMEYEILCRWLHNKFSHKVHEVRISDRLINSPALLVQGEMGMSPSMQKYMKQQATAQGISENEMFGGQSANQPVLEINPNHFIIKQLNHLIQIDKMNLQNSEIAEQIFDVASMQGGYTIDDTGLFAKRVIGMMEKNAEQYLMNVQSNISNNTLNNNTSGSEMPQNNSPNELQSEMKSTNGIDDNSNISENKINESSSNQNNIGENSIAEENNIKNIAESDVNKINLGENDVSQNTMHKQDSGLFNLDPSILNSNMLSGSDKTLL
Test: Binding affinity to Plasmodium falciparum HSP90 nucleotide binding domain by SPR analysis
The source made the active and inactive calls. The calls are words filed in the database; no cut-off is given here.
Endpoint Name: Activity

                                   compound  endpoint_name  recorded_measurement
0  O=[N+]([O-])c1ccc(N2CCC(NCCC(O)c3ccc(F)cc3)CC2)c(C(F)(F)F)c1 (centres undefined)       Activity              inactive
1  COc1ccccc1N1CCN(CCC(O)c2ccc(F)cc2)CC1 (stereo in doubt; 66)       Activity              inactive
2  COc1ccccc1N1CCN(CCC(O)c2ccc(F)c3ccccc23)CC1 (centres undefined)       Activity              inactive
3  O=[N+]([O-])c1ccc(N2CCC(NCCC(O)c3ccc(F)c4ccccc34)CC2)c(C(F)(F)F)c1 (stereo in doubt; 8)       Activity              inactive

Query Activity on HSP90 (Plasmodium falciparum 3D7) (UniProt Q8IL32) for N#Cc1ccc(N2CCC(NCCC(O)c3ccc(F)c4ccccc34)CC2)c(C(F)(F)F)c1 (stereo in doubt; 72)
inactive

// repeat for OC(CCN1CCN(C(c2ccccc2)c2ccccc2)CC1)c1ccc(F)c2ccccc12 (centres undefined) and report
inactive

// repeat for N#Cc1ccc(N2CCC(NCCC(O)c3ccc(F)c4ccccc34)CC2)c(Br)c1 (centres undefined) and report
inactive

// repeat for OC(CCN1CCN(c2ccccc2C(F)(F)F)CC1)c1ccc(F)c2ccccc12 (stereo in doubt; 55) and report
inactive

// repeat for N#Cc1ccc(N2CCC(NCCC(O)c3ccc(F)c4ccccc34)CC2)c(Cl)c1 (centres undefined) and report
inactive
